Listed next: entries and their corresponding MIC.
- Test system: PSEUDOMONAS CEPACIA 296I
- protocol: In vitro antibacterial activity, MIC, BHI agar dilution
- Format: cell-based
- assay context: P. cepacia 296I, unit assumed
# output: bare number, implied unit µg/mL

Sample records with MIC:
CC[C@H]1OC(=O)[C@H](C)C(=O)[C@H](C)[C@@H](O[C@@H]2O[C@H](C)C[C@H](N(C)C)[C@H]2O)[C@](C)(OC)C[C@@H](C)C2=NC[C@H](Cc3ccc(I)cc3)N3C(=O)O[C@@]1(C)[C@H]3[C@H]2C: 50
CC[C@H]1OC(=O)[C@H](C)C(=O)[C@H](C)[C@@H](O[C@@H]2O[C@H](C)C[C@H](N(C)C)[C@H]2O)[C@](C)(OC)C[C@@H](C)C2=N[C@@H]3CN(CCc4ccccc4)C[C@@H]3N3C(=O)O[C@@]1(C)[C@H]3[C@H]2C: 100

Lookup: Look up PSEUDOMONAS CEPACIA 296I data: MIC of CCC1OC(=O)C(C)C(=O)C(C)C(OC2OC(C)CC(N(C)C)C2O)C(C)(OC)CC(C)C2=NCC(COCc3ccccc3F)N3C(=O)OC1(C)C3C2C (stereo not shown) , then report it.
Found: 25
